- Tested on: IGROV1 complex spheroids (HUVEC, MSC), viability % test/control
- TEST DETAILS: Anticancer human tumor IGROV1 cell line growth inhibition [GQUAD]; active = viability on the fitted dose curve at most 10% of control; inactive = the rest;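 note: spheroids exposed to compounds for 7 days before readout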
- CONDITION LABEL: second compound 10 µM; first compound 0.000999 µM
Returns: one label drawn from active, inactive

Query: Tell me the recorded outcome of this test for CC[C@@]1(O)C(=O)OCc2c1cc1n(c2=O)Cc2cc3c(CN(C)C)c(O)ccc3nc2-1 + CN(C)c1ccc(Nc2c3ccc(NC(=O)CCN4CCCC4)cc3nc3cc(NC(=O)CCN4CCCC4)ccc23)cc1 .
Response: inactive

Query: Then what about the compound CC[C@@]1(O)C(=O)OCc2c1cc1n(c2=O)Cc2cc3c(CN(C)C)c(O)ccc3nc2-1 + Cc1[nH]c2ccc(F)cc2c1-c1nc2c3cccnc3c3ncccc3c2[nH]1 ?
Response: active

Query: Try this compound too: CCc1c2c(nc3ccc(O)cc13)-c1cc3c(c(=O)n1C2)COC(=O)[C@]3(O)CC + CN(C)c1ccc(Nc2c3ccc(NC(=O)CCN4CCCC4)cc3nc3cc(NC(=O)CCN4CCCC4)ccc23)cc1
Response: inactive
